# measured target: TRAP isolated from rat bone (BoneTRAP) (Rattus norvegicus)
# Construct: from tissue; host or cells: long bones of 3 week old Sprague Dawley rats
# Sequence (P29288 23-327): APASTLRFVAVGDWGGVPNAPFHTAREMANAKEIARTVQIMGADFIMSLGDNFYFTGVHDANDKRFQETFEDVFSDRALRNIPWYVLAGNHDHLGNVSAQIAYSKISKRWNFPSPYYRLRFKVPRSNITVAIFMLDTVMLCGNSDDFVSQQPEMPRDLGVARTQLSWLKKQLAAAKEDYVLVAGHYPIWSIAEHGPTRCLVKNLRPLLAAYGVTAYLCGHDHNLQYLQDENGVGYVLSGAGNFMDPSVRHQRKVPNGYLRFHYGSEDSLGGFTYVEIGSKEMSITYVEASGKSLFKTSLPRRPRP
# Sequence (P29288 184-327): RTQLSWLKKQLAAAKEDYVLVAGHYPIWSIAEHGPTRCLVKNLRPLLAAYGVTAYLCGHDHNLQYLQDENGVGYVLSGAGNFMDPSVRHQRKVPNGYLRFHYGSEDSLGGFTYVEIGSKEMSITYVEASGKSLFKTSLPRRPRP
# method: Substrate specificity of bone TRAP (phosphatase assay)
# Format: biochemical
# assay conditions: Kcat/Km BoneTRAP over BacTRAP
readout label: Ratio Bone/Bac

- compound: "N[C@@H](Cc1ccc(OP(=O)(O)O)cc1)C(=O)O [pY, phosphotyrosine]"
  Ratio Bone/Bac: 19

(A) C[C@@H](OP(=O)(O)O)[C@H](N)C(=O)O [pT, Phosphothreonine]
(B) N[C@@H](COP(=O)(O)O)C(=O)O [pS, phosphoserine]
Query block: Among A and B , which shows a numerically higher Ratio Bone/Bac result? Answer format: the label of the selected item.
Result block: B
(B: 22, A: 14)
